Test: Metabolic Stability assay, rat liver microsomes
Format: in vitro ADME
Conditions: read-out: LM T1/2 (min) rat
measured-attribute: half-life at 1 μM (min)
// return numeric value only (unit: min, not printed)

CC(C)c1ccccc1-c1ccc(C2CCN(C(=O)c3ccc(Cl)cn3)C2)c(CO)c1 (stereo not drawn)    13.9
CCc1ccccc1Oc1ccc(C2CCN(C(=O)c3ncccc3Cl)C2)c(CO)c1 (stereo not drawn)    9.46
CCc1cc(C)ccc1-c1ccc(C2CCN(C(=O)c3ccc(F)cn3)C2)c(CO)c1 (stereo not drawn)    14
O=C(c1ccc(F)cn1)N1CCC(c2ccc(-c3ccccc3C3CC3)cc2CO)C1 (stereo not drawn)    31.3
COc1cnc(C(=O)N2CCC(c3ccc(-c4ccccc4C4CC4)cc3CO)C2)cn1 (stereo not drawn)    25.7

Task: Reported half-life at 1 μM for CCc1ccccc1-c1ccc(C2CCN(C(=O)c3ncccc3Cl)C2)c(CO)c1 (stereo not drawn) : what is it?
Result: 9.2

Task: Returns the measured half-life at 1 μM for the input molecule. Input: CCc1c(C)cccc1-c1ccc(C2CCN(C(=O)c3ccc(Cl)cn3)C2)c(CO)c1 (stereo not drawn)
Result: 8.47

Task: Look up half-life at 1 μM: CC(C)c1ccccc1-c1ccc([C@@H]2CCN(C(=O)c3ccc(F)cn3)C2)c(CO)c1
Result: 9.14

Task: Given the molecule CC(C)c1ccccc1-c1ccc(C2CCN(C(=O)c3ccccn3)C2)c(CO)c1 (stereo not drawn) , what is its reported half-life at 1 μM?
Result: 11.7
